# method_notes: Mouse pharmacokinetics, female, deuteration matched pair analysis
# Format: in vivo, mice (C57BL/6J)
# details: C57BL/6J, mouse, in vivo; female mice; 0 to 8 h
experimental_endpoint: AUC(0-t)
Answer format reminder: number followed by unit.

Some molecules with known AUC(0-t) results, for comparison:
[[record]]
smiles_record = "[2H]C([2H])([2H])Oc1cccc(-c2cc(F)c(NC(=O)c3ccsc3C(=O)NOC)c(F)c2)c1"
experimental_endpoint = "AUC(0-t)"
readout_value = "12300 ng·h/mL"

[[record]]
smiles_record = "[2H]C([2H])([2H])Oc1cccc(-c2c(F)c(F)c(NC(=O)C3=C(C(=O)NOC)COC3)c(F)c2F)c1"
experimental_endpoint = "AUC(0-t)"
readout_value = "106000 ng·h/mL"

[[record]]
smiles_record = "[2H]C([2H])([2H])ONC(=O)c1sccc1C(=O)Nc1c(F)c(F)c(-c2cccc(OC([2H])([2H])[2H])c2)c(F)c1F"
experimental_endpoint = "AUC(0-t)"
readout_value = "25000 ng·h/mL"


# input molecule: `[2H]C([2H])([2H])ONC(=O)C1=C(C(=O)Nc2c(F)c(F)c(-c3cccc(OC([2H])([2H])[2H])c3)c(F)c2F)COC1` ; wanted: its AUC(0-t) 165000 ng·h/mL

###

# method_notes: Metabolic stability in rat liver microsomes
# details: male, SD
Below, each of the compounds is paired with its reported microsomal CLint value.
Record the value in µL/min/mg, omitting the unit from your answer.

[[record]]
compound = "[2H]C([2H])([2H])Oc1cccc(-c2cc(F)c(NC(=O)c3ccsc3C(=O)NOC)c(F)c2)c1 [Example 9]"
unit_abbrev = "µL/min/mg"
readout_value = 183


# input compound: [2H]C([2H])([2H])Oc1cccc(-c2c(F)c(F)c(NC(=O)C3=C(C(=O)NS(C)(=O)=O)CCC3)c(F)c2F)c1 [Example 1/7] ; wanted: its microsomal CLint 20

Same thing, different compound: COc1cccc(-c2c(F)c(F)c(NC(=O)C3=C(C(=O)NS(C)(=O)=O)CCC3)c(F)c2F)c1 [Example 1/13] 25.5

Same thing, different compound: [2H]C([2H])([2H])Oc1cccc(-c2cc(F)c(NC(=O)c3ccsc3C(=O)NOCCO)c(F)c2)c1 [Example 9/1] 162

Same thing, different compound: CONC(=O)c1sccc1C(=O)Nc1c(F)cc(-c2cccc(OC)c2)cc1F [Example 9/9] 192

###

# measurement_target: N-terminally truncated recombinant hDHODH enzyme (Homo sapiens)
# Sequence (Q02127 whole entry, looked up, the tested form may be a part): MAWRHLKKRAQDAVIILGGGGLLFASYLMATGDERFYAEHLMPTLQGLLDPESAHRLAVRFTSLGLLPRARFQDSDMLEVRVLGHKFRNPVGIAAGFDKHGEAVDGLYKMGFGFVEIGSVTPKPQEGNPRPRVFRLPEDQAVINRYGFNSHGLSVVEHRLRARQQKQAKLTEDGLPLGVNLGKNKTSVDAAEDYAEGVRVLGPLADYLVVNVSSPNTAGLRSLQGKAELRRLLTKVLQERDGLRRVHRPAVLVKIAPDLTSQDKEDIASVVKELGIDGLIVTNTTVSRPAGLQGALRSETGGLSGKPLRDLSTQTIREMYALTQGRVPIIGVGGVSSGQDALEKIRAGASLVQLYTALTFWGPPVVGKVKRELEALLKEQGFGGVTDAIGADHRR
# method_notes: biochemical
# Assay type: biochemical
# details: human DHODH assay; read-out: IC50 range
experimental_endpoint: IC50

Some compounds with known IC50 results, for comparison:
[[record]]
compound = "COc1cccc(-c2c(F)c(F)c(NC(=O)C3=C(C(=O)NS(C)(=O)=O)CCC3)c(F)c2F)c1 [Example 1/13]"
readout_value = "< 100 nM"

[[record]]
compound = "[2H]C([2H])([2H])Oc1ccccc1-c1c(F)c(F)c(NC(=O)C2=C(C(=O)NOCCO)CSC2)c(F)c1F [6/3]"
readout_value = "< 100 nM"

[[record]]
compound = "[2H]C([2H])([2H])Oc1cccc(-c2c(F)c(F)c(NC(=O)c3cocc3C(=O)NOC)c(F)c2F)c1 [Example 16/1]"
readout_value = "< 100 nM"


# input compound: [2H]C([2H])([2H])Oc1cccc(-c2c(F)c(F)c(NC(=O)c3cc(F)sc3C(=O)NOC)c(F)c2F)c1 [16/2] ; wanted: its IC50 < 100 nM

Same thing, different compound: [2H]C([2H])([2H])Oc1cccc(-c2c(F)cc(NC(=O)c3ccsc3C(=O)NOC)cc2F)c1 [9/3] < 100 nM

Same thing, different compound: [2H]C([2H])([2H])Oc1cccc(-c2c(F)c(F)c(NC(=O)C3=C(C(=O)NS(N)(=O)=O)COC3)c(F)c2F)c1 [Example 2-1/1] < 100 nM

Same thing, different compound: NS(=O)(=O)NC(=O)C1=C(C(=O)Nc2c(F)c(F)c(-c3cccc(OC(F)(F)F)c3)c(F)c2F)CCC1 [Example 2] < 100 nM
